Test system: BT-549 breast
Assay: NCI-60 one-dose screen, 48 h (100 = growth as untreated, 0 = no growth, -100 = all killed)
Details: 10 µM unless noted
The panel holds about 83,000 compounds, 20% with a hit somewhere; the sample as a whole holds those more often.
Reported growth values for the following compounds.
PROPERTY: growth (%)

>>> readout_number("O=C(Nc1ccc(N2CCNCC2)cc1)c1[nH]ncc1Nc1ncnc2sc3c(c12)CCC3")
0.151
>>> readout_number("Cc1ccc2cccc(Oc3ccc(Nc4ncnc5onc(-c6ccccc6)c45)cc3)c2n1")
93.3
>>> readout_number("Cc1ccc2[nH]c(=O)cc(-n3nncc3Cn3c4ccccc4c4ccccc43)c2c1")
96.6
>>> readout_number("CCOC(=O)C1(C(=O)OCC)N=C(c2ccccc2)C=C1c1ccccc1")
97.9
>>> readout_number("COc1cc(C2C(C#N)=C(N)OC3=C2C(=O)c2ccccc2C3=O)cc(OC)c1OC (stereo unspecified)")
41.4
>>> readout_number("CN=c1ccc2nc3ccc(N)cc3sc-2c1")
52.4
>>> readout_number("COc1cc(-c2c3c(cn2S(=O)(=O)c2ccccc2)-c2nc(N)sc2CC3)cc(OC)c1OC")
48.5
>>> readout_number("COC(=O)c1c2c(c(C)[n+]([O-])c1C)C(=O)C(NCc1ccc(F)c(F)c1)=CC2=O")
66.4
>>> readout_number("O=c1c2cccc(F)c2sc2c(N3CCNCC3)nc3ccccc3c12")
73.7
>>> readout_number("CCOC(=O)c1c2c(c(C)n1Cc1ccc(OC)cc1)-c1oncc1CC2")
104
>>> readout_number("CC1=C(CC(=O)c2cccc([N+](=O)[O-])c2)C(=O)c2ccccc2C1=O")
2.6
>>> readout_number("O=C(Cc1ccccc1)NC(c1ccc(Cl)cc1)c1c(O)ccc2ccccc12 (stereo unspecified)")
50
>>> readout_number("O=C(Nc1ccc(N2CCNCC2)cn1)c1[nH]ncc1Nc1ncnc2sc3c(c12)CCC3")
85.4
>>> readout_number("Cc1nc2ccccc2c(/C=C/c2ccc(F)cc2)c1C(N)=O")
97.4
>>> readout_number("CCOC(=O)CSc1c(-c2ccccc2)c2cc(Cl)ccc2[nH]c1=O")
103
>>> readout_number("Fc1cccc(COc2ccc(Nc3ncnc4onc(-c5ccccc5)c34)cc2)c1")
12.8
>>> readout_number("CCOC(=O)C1=CN(C)C=C(C(=O)OCC)C1c1cc(Br)c(OCC)c(OC)c1")
84.9
>>> readout_number("O=C(NC(=S)Nc1cccc(NC(=S)NC(=O)c2ccccc2)c1)c1ccccc1")
58.4
>>> readout_number("COC(=O)c1c2c(c(C)[n+]([O-])c1C)C(=O)C=C(NCc1ccccc1)C2=O")
-67.5
>>> readout_number("CCCCCCC(O)(c1ccc(F)cc1)C(CN1CCOCC1)c1ccccc1 (stereo unspecified)")
61.9
>>> readout_number("CNCCNc1nc2ccccc2c2c(=O)c3cc(F)ccc3sc12")
82.4
